Molecular target: RORγt (Homo sapiens)
Sequence (P51449 1-497 isoform P51449-2): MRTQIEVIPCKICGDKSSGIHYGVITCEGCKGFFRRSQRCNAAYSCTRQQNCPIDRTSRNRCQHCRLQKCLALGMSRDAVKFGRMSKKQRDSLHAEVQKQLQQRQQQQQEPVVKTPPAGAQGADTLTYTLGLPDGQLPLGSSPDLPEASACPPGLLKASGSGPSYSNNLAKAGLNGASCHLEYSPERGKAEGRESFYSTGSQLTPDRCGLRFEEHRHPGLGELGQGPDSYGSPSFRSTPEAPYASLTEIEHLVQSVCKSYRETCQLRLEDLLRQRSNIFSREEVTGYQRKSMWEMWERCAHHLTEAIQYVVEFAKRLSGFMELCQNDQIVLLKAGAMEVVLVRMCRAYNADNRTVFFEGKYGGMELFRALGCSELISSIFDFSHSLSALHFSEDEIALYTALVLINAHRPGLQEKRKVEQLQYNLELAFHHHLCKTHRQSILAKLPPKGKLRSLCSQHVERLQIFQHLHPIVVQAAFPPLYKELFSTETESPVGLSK
Experiment: Jurkat reporter test (human IL-17 ROR response element luciferase reporter)
Type: cell-based
Conditions: Jurkat, read-out: luminescence level inhibitory rate (%) at test compound 3 μM
Here the recorded inhibition at 3 µM is given for each entry.
A number alone suffices; assume %.

COc1ccc(C(NC(=O)Cc2cc(C)no2)C(=O)Nc2ccc([Si](C)(C)C)cc2)cc1 (stereo not shown) [Example 18]: 90.9

## Input State measured inhibition at 3 µM of the compound COc1ccc(C(NC(=O)Cc2cnn(C)c2)C(=O)Nc2ccc([Si](C)(C)C)cc2)cc1 (stereo not shown) [Example 20] with RORγt (Homo sapiens).
## Output 91.8

## Input Supply inhibition at 3 µM measured with RORγt (Homo sapiens) for COCc1ccc([C@@H](NC(=O)[C@H]2CNC(=O)C2)C(=O)Nc2ccc([Si](C)(C)C)c(F)c2)cc1 [Example 54] .
## Output 99

## Input With RORγt (Homo sapiens) as the test system, provide measured inhibition at 3 µM for this compound: CCC(=O)N[C@@H](C(=O)Nc1ccc([Si](C)(C)C)c(F)c1)c1ccc(COC)cc1 [Example 79]
## Output 98.4

###

Molecular target: RORγt (Homo sapiens)
Sequence (P51449 1-497 isoform P51449-2): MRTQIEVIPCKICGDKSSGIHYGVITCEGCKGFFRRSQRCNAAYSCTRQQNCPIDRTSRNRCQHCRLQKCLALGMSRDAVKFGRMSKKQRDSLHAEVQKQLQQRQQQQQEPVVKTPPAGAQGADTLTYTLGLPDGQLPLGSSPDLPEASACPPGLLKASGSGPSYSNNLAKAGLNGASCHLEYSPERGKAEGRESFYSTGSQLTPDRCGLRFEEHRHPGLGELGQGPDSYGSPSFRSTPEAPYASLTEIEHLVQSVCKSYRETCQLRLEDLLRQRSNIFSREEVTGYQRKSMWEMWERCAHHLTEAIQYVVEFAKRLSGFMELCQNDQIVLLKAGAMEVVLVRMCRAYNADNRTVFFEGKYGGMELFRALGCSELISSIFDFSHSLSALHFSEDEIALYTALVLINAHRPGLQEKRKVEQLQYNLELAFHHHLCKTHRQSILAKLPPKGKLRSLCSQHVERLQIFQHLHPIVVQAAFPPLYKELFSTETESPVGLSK
Assay: Cofactor recruitment test (Alpha Screen, biotinylated SRC-1 peptide)
Type: biochemical
Conditions: read-out: signal value inhibitory rate (%) at test compound 1 μM
Description: Cofactor Recruitment Test Cofactor recruitment test was performed by Alpha Screen (Histidine Detection Kit, PerkinElmer) method. First, a test compound was diluted with an assay buffer (50 mM Tris-HCl (pH 7.5), 50 mM KCl, 1 mM DTT, 0.1% BSA) and added to a 384 well plate by 5 μL. […] The mixture was stood in a dark place for 1 hr, and the signal value was measured by Envision (PerkinElmer).
readoutName: inhibition at 1 µM
Record the result as number plus unit.

COc1ccc(C(NC(=O)Cc2cc(C)no2)C(=O)Nc2ccc([Si](C)(C)C)cc2)cc1 (stereo not shown): 60.3%

## Input Return the recorded inhibition at 1 µM value; entry: COCc1ccc(C(NC(=O)[C@@H]2CNC(=O)C2)C(=O)Nc2ccc(C(C)(C)C)c(Cl)c2)cc1 (stereo partly shown)
## Output 74.9%

## Input Output inhibition at 1 µM of COCc1ccc([C@@H](NC(=O)Cn2ccc(=O)cc2)C(=O)Nc2ccc([Si](C)(C)C)c(F)c2)cc1
## Output 93.2%

## Input Find the measured inhibition at 1 µM of COCc1ccc([C@@H](NC(=O)CCO)C(=O)Nc2cc(F)c([Si](C)(C)C)c(F)c2)cc1 and report it.
## Output 96.7%

## Input Check the records and state inhibition at 1 µM for COc1ccc(C(NC(=O)Cc2ccc(=O)[nH]c2)C(=O)Nc2ccc([Si](C)(C)C)cc2)cc1 (stereo not shown)
## Output 81.9%

## Input In one line, give reported inhibition at 1 µM of the entry COCc1ccc([C@@H](NC(=O)CC(C)(C)C(=O)O)C(=O)Nc2cc(F)c([Si](C)(C)C)c(F)c2)cc1 .
## Output 96.2%

## Input Name the recorded inhibition at 1 µM of the compound listed here: COCc1ccc([C@@H](NC(=O)[C@@H]2CNC(=O)C2)C(=O)Nc2ccc(C(C)(C)C)c(F)c2)cc1
## Output 87.6%
